experiment: activity coefficient (dimensionless); of the first substance listed, at infinite dilution; xn = mol fraction of the nth substance listed; conditions: 318.15 K; Liquid; x1 = 0
activity coefficient vs 0.6: at or above is TRUE, below is FALSE.

Would you please look over these solved cases?
c1ccccc1 [benzene] + CCCCCCCCCCCCCC[P+](CCCCCC)(CCCCCC)CCCCCC.FC(F)(F)C(F)(F)[P-](F)(F)(F)(C(F)(F)C(F)(F)F)C(F)(F)C(F)(F)F
FALSE
CCCCCCCC [octane] + CCCCCCCCCCCCCC[P+](CCCCCC)(CCCCCC)CCCCCC.FC(F)(F)C(F)(F)[P-](F)(F)(F)(C(F)(F)C(F)(F)F)C(F)(F)C(F)(F)F
TRUE
CCCCCCC [heptane] + CCCCCCCCCCCCCC[P+](CCCCCC)(CCCCCC)CCCCCC.FC(F)(F)C(F)(F)[P-](F)(F)(F)(C(F)(F)C(F)(F)F)C(F)(F)C(F)(F)F
TRUE
CCO [ethanol] + CCCCCCCCCCCCCC[P+](CCCCCC)(CCCCCC)CCCCCC.FC(F)(F)C(F)(F)[P-](F)(F)(F)(C(F)(F)C(F)(F)F)C(F)(F)C(F)(F)F
TRUE
C#CCCCCC [1-heptyne] + CCCCCCCCCCCCCC[P+](CCCCCC)(CCCCCC)CCCCCC.FC(F)(F)C(F)(F)[P-](F)(F)(F)(C(F)(F)C(F)(F)F)C(F)(F)C(F)(F)F
FALSE

Assess whether reported activity coefficient for CCCO [propan-1-ol] + CCCCCCCCCCCCCC[P+](CCCCCC)(CCCCCC)CCCCCC.FC(F)(F)C(F)(F)[P-](F)(F)(F)(C(F)(F)C(F)(F)F)C(F)(F)C(F)(F)F sits at 0.6 or higher. TRUE

Assess whether reported activity coefficient for C1CCCCC1 [cyclohexane] + CCCCCCCCCCCCCC[P+](CCCCCC)(CCCCCC)CCCCCC.FC(F)(F)C(F)(F)[P-](F)(F)(F)(C(F)(F)C(F)(F)F)C(F)(F)C(F)(F)F sits at 0.6 or higher. FALSE

Assess whether reported activity coefficient for CCCCCC [hexane] + CCCCCCCCCCCCCC[P+](CCCCCC)(CCCCCC)CCCCCC.FC(F)(F)C(F)(F)[P-](F)(F)(F)(C(F)(F)C(F)(F)F)C(F)(F)C(F)(F)F sits at 0.6 or higher. TRUE

Assess whether reported activity coefficient for CO [methanol] + CCCCCCCCCCCCCC[P+](CCCCCC)(CCCCCC)CCCCCC.FC(F)(F)C(F)(F)[P-](F)(F)(F)(C(F)(F)C(F)(F)F)C(F)(F)C(F)(F)F sits at 0.6 or higher. TRUE

Assess whether reported activity coefficient for C=CCCCC [hex-1-ene] + CCCCCCCCCCCCCC[P+](CCCCCC)(CCCCCC)CCCCCC.FC(F)(F)C(F)(F)[P-](F)(F)(F)(C(F)(F)C(F)(F)F)C(F)(F)C(F)(F)F sits at 0.6 or higher. FALSE

Assess whether reported activity coefficient for C=CCCCCC [1-heptene] + CCCCCCCCCCCCCC[P+](CCCCCC)(CCCCCC)CCCCCC.FC(F)(F)C(F)(F)[P-](F)(F)(F)(C(F)(F)C(F)(F)F)C(F)(F)C(F)(F)F sits at 0.6 or higher. FALSE

Assess whether reported activity coefficient for C#CCCCC [1-hexyne] + CCCCCCCCCCCCCC[P+](CCCCCC)(CCCCCC)CCCCCC.FC(F)(F)C(F)(F)[P-](F)(F)(F)(C(F)(F)C(F)(F)F)C(F)(F)C(F)(F)F sits at 0.6 or higher. FALSE
